# procedure_summary: Single- and multiple-dose pharmacokinetic and dose-proportionality study of oxymorphone IR tablets in healthy subjects
# test_conditions: both, human, plasma, oral, 5 mg, t1/2 (terminal elimination half-life), mean, single dose oxymorphone IR 5 mg
attribute_measured: half-life (h)

> print(dat)
                                   compound  reported.measurement
1  CN1CC[C@]23c4c5ccc(O)c4O[C@H]2C(=O)CC[C@@]3(O)[C@H]1C5 [Oxymorphone, oxymorphone]                  7.25

----------
# procedure_summary: Single- and multiple-dose pharmacokinetic and dose-proportionality study of oxymorphone IR tablets in healthy subjects
# test_conditions: both, human, plasma, oral, 5 mg
attribute_measured: concentration at 6 day

> print(dat)
                           smiles.structure  reported.measurement
1  CN1CC[C@]23c4c5ccc(O)c4O[C@H]2C(=O)CC[C@@]3(O)[C@H]1C5            0.47 ng/mL

----------
# procedure_summary: Single- and multiple-dose pharmacokinetic and dose-proportionality study of oxymorphone IR tablets in healthy subjects
# test_conditions: both, human, plasma, oral, 5 mg
attribute_measured: concentration at 7 day (ng/mL)

> print(dat)
                           smiles.structure      attribute.measured  quantity.unit  reported.measurement
1  CN1CC[C@]23c4c5ccc(O)c4O[C@H]2C(=O)CC[C@@]3(O)[C@H]1C5  concentration at 7 day          ng/mL                   0.5

----------
# procedure_summary: Single- and multiple-dose pharmacokinetic and dose-proportionality study of oxymorphone IR tablets in healthy subjects
# test_conditions: both, human, plasma, oral, 10 mg
attribute_measured: concentration at 6 day (ng/mL)

> print(dat)
                           smiles.structure  reported.measurement
1  CN1CC[C@]23c4c5ccc(O)c4O[C@H]2C(=O)CC[C@@]3(O)[C@H]1C5                  0.98

----------
# procedure_summary: Single- and multiple-dose pharmacokinetic and dose-proportionality study of oxymorphone IR tablets in healthy subjects
# test_conditions: both, human, plasma, oral, 20 mg
attribute_measured: concentration at 6 day (ng/mL)

> print(dat)
                                   compound  reported.measurement
1  CN1CC[C@]23c4c5ccc(O)c4O[C@H]2C(=O)CC[C@@]3(O)[C@H]1C5 [Oxymorphone, oxymorphone]                  2.05

----------
# procedure_summary: Single- and multiple-dose pharmacokinetic and dose-proportionality study of oxymorphone IR tablets in healthy subjects
# test_conditions: both, human, plasma, oral, 20 mg, Cmax, mean, single dose oxymorphone IR 20 mg
attribute_measured: Cmax (ng/mL)

> print(dat)
                                   molecule  attribute.measured  reported.measurement
1  CN1CC[C@]23c4c5ccc(O)c4O[C@H]2C(=O)CC[C@@]3(O)[C@H]1C5 [Oxymorphone, oxymorphone]                Cmax                  4.39

----------
# procedure_summary: Single- and multiple-dose pharmacokinetic and dose-proportionality study of oxymorphone IR tablets in healthy subjects
# test_conditions: both, human, plasma, oral, 5 mg
attribute_measured: concentration at 8 day

> print(dat)
                           smiles.structure  reported.measurement
1  CN1CC[C@]23c4c5ccc(O)c4O[C@H]2C(=O)CC[C@@]3(O)[C@H]1C5            0.49 ng/mL
